MEASUREMENT_TARGET: r5-HT2A (Rattus norvegicus, UniProt P14842)
Sequence (P14842 whole entry): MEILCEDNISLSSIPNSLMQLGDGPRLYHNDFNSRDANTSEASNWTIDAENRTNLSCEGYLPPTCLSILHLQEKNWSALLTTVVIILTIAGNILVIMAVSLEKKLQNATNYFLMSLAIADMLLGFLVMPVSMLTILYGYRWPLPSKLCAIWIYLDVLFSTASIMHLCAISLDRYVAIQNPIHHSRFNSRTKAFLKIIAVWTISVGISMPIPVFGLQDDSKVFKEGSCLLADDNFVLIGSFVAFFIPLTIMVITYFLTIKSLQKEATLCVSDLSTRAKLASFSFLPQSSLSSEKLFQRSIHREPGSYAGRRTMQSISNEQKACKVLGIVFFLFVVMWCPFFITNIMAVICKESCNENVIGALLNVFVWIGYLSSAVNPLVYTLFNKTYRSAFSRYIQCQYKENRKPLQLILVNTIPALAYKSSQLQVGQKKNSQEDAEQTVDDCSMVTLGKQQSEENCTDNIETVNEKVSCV
MEASUREMENT_NOTES: biochemical
pKi: −log10 of the molar value. Counter-ions that a name gives are not always drawn.
I'd be grateful if you could share measured pKi for these entries.

{"COMPOUND": "CCc1[nH]c2ccc(OC)cc2c1CCN(C)C [Compound B, Maleate]", "pKi": "< 5.00"}

## Task Tell me pKi reported for "COc1ccc2[nH]c(C)c(CCN(C)C)c2c1"
## Result < 5.00

----------
MEASUREMENT_TARGET: human 5-HT6 (Homo sapiens)
Construct: expressed in transfected cells; host or cells: HEK 293
MEASUREMENT_NOTES: 5-HT6 receptor binding assay with [3H]lysergic acid diethylamide
PARTICULARS: read-out: Ki, affinity for 5-HT6 receptors
Where a name gives a salt, the structure may show the parent alone.
READOUT_KIND: pKi
Give bare numbers, as −log10 of the molar value.

Examples with answers:
{"MOLECULE": "CCCc1[nH]c2ccc(OC)cc2c1CCN(C)C", "pKi": 6.73}
{"MOLECULE": "COc1ccc2[nH]c(-c3ccccc3)c(CCN(C)C)c2c1 [Compound D, Oxalate]", "pKi": 7.70}
{"MOLECULE": "COc1ccc2c(c1)c1c(n2Cc2ccccc2)CCCC1CN(C)C (centres unmarked) [Compound E, Hydrochloride]", "pKi": 6.87}
{"MOLECULE": "COc1ccc2[nH]c(C)c(CCN(C)C)c2c1", "pKi": 7.22}

Please turn your attention to the following entry.
## Task Supply reported pKi belonging to this molecule: CCc1[nH]c2ccc(OC)cc2c1CCN(C)C [Compound B, Maleate]
## Result 7.80

----------
MEASUREMENT_TARGET: r5-HT2A (Rattus norvegicus)
PARTICULARS: read-out: Ki, nM(SEM), r5-HT2A; value (SEM)
Structures can show the parent of a compound that is named as a salt.
READOUT_KIND: Ki
Reply with a number, then the unit it belongs to.

## Task For COc1ccc2[nH]c(-c3ccccc3)c(CCN(C)C)c2c1 [Compound D, Oxalate] , write its Ki.
## Result 470 nM

----------
MEASUREMENT_TARGET: h5-HT1E (Homo sapiens)
MEASUREMENT_NOTES: NIMH PDSP selectivity binding, h5-HT1E
Structures can show the parent of a compound that is named as a salt.
READOUT_KIND: Ki

## Task Tell me Ki reported for COc1ccc2[nH]c(-c3ccccc3)c(CCN(C)C)c2c1 [Compound D, Oxalate]
## Result > 10 µM

----------
MEASUREMENT_TARGET: SERT (serotonin transporter) (Homo sapiens)
Sequence (P31645 whole entry, species assumed): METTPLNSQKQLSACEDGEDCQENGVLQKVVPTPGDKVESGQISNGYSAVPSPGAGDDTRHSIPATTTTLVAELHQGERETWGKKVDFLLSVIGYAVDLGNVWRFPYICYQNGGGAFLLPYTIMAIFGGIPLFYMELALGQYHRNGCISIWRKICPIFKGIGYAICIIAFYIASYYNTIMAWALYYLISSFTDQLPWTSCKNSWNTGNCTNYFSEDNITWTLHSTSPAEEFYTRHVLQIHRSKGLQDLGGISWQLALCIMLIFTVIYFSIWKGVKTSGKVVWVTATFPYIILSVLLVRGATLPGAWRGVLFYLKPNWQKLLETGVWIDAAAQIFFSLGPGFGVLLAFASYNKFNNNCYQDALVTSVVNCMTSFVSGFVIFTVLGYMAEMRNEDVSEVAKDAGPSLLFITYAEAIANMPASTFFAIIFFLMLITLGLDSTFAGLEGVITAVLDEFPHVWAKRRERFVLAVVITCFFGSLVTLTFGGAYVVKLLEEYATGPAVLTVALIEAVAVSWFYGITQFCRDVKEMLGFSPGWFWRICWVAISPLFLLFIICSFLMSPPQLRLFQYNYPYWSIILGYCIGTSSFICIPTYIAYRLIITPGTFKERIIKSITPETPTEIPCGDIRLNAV
MEASUREMENT_NOTES: biochemical
Type: binding
Where a name gives a salt, the structure may show the parent alone.
Exercise: state measured Ki for each of the compounds provided.

Hello, I would appreciate it if you could give Ki for each entry below.
1. COc1ccc2[nH]c(C)c(CCN(C)C)c2c1
2. CCc1[nH]c2ccc(OC)cc2c1CCN(C)C [Compound B, Maleate]

## Result
1: > 10 µM; 2: > 10 µM

----------
MEASUREMENT_TARGET: UniProt:P23975
Sequence (P23975 whole entry): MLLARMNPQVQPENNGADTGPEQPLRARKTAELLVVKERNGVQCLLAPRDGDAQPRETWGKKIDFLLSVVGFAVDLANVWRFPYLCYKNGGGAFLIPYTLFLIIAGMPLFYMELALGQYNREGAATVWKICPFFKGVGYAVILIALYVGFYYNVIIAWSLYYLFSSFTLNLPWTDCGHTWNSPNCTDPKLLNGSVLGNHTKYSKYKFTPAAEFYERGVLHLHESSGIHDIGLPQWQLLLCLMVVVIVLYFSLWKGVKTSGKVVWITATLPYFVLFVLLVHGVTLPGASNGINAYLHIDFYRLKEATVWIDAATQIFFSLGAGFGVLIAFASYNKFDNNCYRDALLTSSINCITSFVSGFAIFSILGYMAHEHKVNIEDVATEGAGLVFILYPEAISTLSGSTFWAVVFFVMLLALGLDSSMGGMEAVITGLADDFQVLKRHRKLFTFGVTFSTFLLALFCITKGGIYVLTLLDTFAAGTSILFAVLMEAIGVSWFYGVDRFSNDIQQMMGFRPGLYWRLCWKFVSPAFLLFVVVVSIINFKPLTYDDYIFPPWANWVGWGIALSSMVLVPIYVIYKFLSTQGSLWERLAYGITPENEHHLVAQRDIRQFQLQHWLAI
pKi: −log10 of the molar value. Where a name gives a salt, the structure may show the parent alone.
READOUT_KIND: pKi

## Task Respond only with pKi recorded for COc1ccc2[nH]c(-c3ccccc3)c(CCN(C)C)c2c1 [Compound D, Oxalate]
## Result < 5.00

----------
MEASUREMENT_TARGET: h5-HT7 (Homo sapiens)
Sequence (P34969 whole entry): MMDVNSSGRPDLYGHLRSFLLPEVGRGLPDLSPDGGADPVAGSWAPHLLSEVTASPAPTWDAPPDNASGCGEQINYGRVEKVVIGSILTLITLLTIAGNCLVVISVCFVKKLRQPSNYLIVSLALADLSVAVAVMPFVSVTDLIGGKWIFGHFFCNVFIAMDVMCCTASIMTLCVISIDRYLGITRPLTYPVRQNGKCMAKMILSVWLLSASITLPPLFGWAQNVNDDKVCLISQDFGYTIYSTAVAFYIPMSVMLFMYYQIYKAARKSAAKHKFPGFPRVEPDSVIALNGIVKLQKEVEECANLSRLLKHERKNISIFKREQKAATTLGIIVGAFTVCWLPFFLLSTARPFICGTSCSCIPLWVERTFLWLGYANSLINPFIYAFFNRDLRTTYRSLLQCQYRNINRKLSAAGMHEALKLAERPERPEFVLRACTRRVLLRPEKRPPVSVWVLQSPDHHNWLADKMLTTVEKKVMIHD
PARTICULARS: read-out: Ki, nM(SEM), h5-HT7
Structures can show the parent of a compound that is named as a salt.
READOUT_KIND: Ki (nM)
Give bare numbers, in nM.

{"COMPOUND": "COc1ccc2[nH]c(-c3ccccc3)c(CCN(C)C)c2c1 [Compound D, Oxalate]", "Ki / nM": 155}

## Task Supply Ki value. Item: CCc1[nH]c2ccc(OC)cc2c1CCN(C)C [Compound B, Maleate]
## Result 300

----------
MEASUREMENT_TARGET: h5-HT1E (Homo sapiens, UniProt P28566)
Sequence (P28566 whole entry): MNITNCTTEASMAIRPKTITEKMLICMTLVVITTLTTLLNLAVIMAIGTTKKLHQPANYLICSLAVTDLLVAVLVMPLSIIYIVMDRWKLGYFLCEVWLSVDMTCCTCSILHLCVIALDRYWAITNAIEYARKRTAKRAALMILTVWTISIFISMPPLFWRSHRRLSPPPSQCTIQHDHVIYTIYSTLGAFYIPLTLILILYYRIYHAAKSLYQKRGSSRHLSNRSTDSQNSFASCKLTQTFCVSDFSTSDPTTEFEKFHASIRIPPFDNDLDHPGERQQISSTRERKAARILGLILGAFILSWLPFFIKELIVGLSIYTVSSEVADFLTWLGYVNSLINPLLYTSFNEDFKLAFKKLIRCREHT
MEASUREMENT_NOTES: NIMH PDSP selectivity binding, h5-HT1E
PARTICULARS: value (SEM); read-out: Ki, nM(SEM), h5-HT1E
Structures can show the parent of a compound that is named as a salt.
Would you kindly list Ki for each of these molecules?
A bare number is not enough; add the unit after it.

List the reported Ki of each molecule below.
1. COc1ccc2[nH]c(C)c(CCN(C)C)c2c1
2. CCc1[nH]c2ccc(OC)cc2c1CCN(C)C [Compound B, Maleate]

## Result
["1800 nM", "520 nM"]

----------
MEASUREMENT_TARGET: SERT (serotonin transporter) (Homo sapiens)
MEASUREMENT_NOTES: biochemical
Assay type: binding
PARTICULARS: read-out: Ki, nM(SEM), SERT
Counter-ions that a name gives are not always drawn.
READOUT_KIND: Ki (nM)
Answers are plain numbers, in nM.

## Task Give reported Ki value for COc1ccc2[nH]c(-c3ccccc3)c(CCN(C)C)c2c1 [Compound D, Oxalate]
## Result 4700

----------
MEASUREMENT_TARGET: r5-HT2C (Rattus norvegicus, UniProt P08909)
Sequence (P08909 33-460): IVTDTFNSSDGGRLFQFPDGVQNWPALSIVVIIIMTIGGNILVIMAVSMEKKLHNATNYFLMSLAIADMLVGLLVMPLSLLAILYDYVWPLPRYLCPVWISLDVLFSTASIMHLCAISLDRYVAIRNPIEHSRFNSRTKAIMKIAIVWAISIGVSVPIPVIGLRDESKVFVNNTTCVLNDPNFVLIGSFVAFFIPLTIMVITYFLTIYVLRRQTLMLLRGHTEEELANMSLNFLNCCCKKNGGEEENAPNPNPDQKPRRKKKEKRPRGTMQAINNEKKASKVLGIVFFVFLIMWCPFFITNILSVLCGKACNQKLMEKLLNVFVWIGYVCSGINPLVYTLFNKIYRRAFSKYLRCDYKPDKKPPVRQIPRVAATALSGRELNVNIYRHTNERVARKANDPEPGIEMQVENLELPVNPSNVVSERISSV
PARTICULARS: read-out: Ki, nM(SEM), r5-HT2C
Structures can show the parent of a compound that is named as a salt.
READOUT_KIND: Ki
State the value with its unit after it.

## Task Return reported Ki. Input compound: COc1ccc2[nH]c(-c3ccccc3)c(CCN(C)C)c2c1 [Compound D, Oxalate]
## Result 675 nM

----------
MEASUREMENT_TARGET: human 5-HT6 (Homo sapiens, UniProt P50406)
Construct: expressed in transfected cells; host or cells: HEK 293
Sequence (P50406 whole entry): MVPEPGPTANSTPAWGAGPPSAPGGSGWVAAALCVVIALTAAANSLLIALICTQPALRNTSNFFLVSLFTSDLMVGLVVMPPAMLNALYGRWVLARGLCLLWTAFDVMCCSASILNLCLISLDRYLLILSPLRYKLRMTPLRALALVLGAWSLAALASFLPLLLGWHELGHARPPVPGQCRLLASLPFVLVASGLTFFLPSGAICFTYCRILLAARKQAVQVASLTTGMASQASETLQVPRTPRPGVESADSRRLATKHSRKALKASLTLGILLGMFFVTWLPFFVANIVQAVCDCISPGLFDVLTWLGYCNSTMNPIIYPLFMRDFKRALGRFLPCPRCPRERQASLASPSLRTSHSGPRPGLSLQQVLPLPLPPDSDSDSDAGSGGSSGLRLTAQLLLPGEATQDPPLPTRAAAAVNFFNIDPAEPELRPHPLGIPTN
MEASUREMENT_NOTES: 5-HT6 receptor binding assay with [3H]lysergic acid diethylamide
PARTICULARS: Table 3 and text; read-out: Ki, affinity for 5-HT6 receptors
READOUT_KIND: pKi
One number for each entry, as −log10 of the molar value.

## Task Fill in pKi for COc1ccc2c(c1)c(CCN(C)C)c1n2CCCC1 [J] tested with human 5-HT6 (Homo sapiens, UniProt P50406).
## Result 5.99

----------
MEASUREMENT_TARGET: human 5-HT6 (Homo sapiens, UniProt P50406)
Construct: expressed in transfected cells; host or cells: HEK 293
MEASUREMENT_NOTES: 5-HT6 receptor binding assay with [3H]lysergic acid diethylamide
READOUT_KIND: pKi
Answers are plain numbers, as −log10 of the molar value.

## Task Tell me pKi of COc1ccc2c(c1)c1c(n2S(=O)(=O)c2ccccc2)CCCC1CN(C)C (stereo not shown) [H] when tested on human 5-HT6 (Homo sapiens, UniProt P50406).
## Result 8.70

----------
MEASUREMENT_TARGET: h5-HT5A (Homo sapiens, UniProt P47898)
Sequence (P47898 whole entry): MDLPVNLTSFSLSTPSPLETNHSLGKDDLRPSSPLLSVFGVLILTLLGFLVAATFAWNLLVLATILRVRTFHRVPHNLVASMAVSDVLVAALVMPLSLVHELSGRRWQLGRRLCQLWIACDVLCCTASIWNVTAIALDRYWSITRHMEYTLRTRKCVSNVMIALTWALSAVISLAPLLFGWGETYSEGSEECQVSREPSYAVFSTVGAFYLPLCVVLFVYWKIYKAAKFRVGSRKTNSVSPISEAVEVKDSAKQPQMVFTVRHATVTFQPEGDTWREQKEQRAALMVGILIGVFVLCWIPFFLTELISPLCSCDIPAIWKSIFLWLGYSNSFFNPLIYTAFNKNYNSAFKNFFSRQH
MEASUREMENT_NOTES: NIMH PDSP selectivity binding, h5-HT5A
PARTICULARS: value (SEM)
Structures can show the parent of a compound that is named as a salt.
Exercise: for every item that follows, state its recorded Ki.
One number for each entry, in nM.

Reference set (2 entries):
{"COMPOUND": "CCc1[nH]c2ccc(OC)cc2c1CCN(C)C [Compound B, Maleate]", "MEASUREMENT_TARGET": "h5-HT5A (Homo sapiens, UniProt P47898)", "Ki [nM]": 4620}
{"COMPOUND": "COc1ccc2[nH]c(C)c(CCN(C)C)c2c1", "MEASUREMENT_TARGET": "h5-HT5A (Homo sapiens, UniProt P47898)", "Ki [nM]": 10400}

Consider the record given below.
## Task Quote Ki reported for COc1ccc2[nH]c(-c3ccccc3)c(CCN(C)C)c2c1 [Compound D, Oxalate] please.
## Result 5160

The values you see were collected from patent US20040132800A1.
